Hey, just so you know, these numbers are from patent US20190375708A1.

test: In vitro cytotoxicity assay (MTT cell viability) in HepG2 cells; format: cell-based, human; details: human
experimental.endpoint: CC50 at 7 days

> print(dat)
                                 smiles.str  measurement
1  Cc1cc(NC(=O)c2c(C)c(C(=O)C(=O)NC3(c4nc(-c5cnccn5)no4)CCCCC3)n(C)c2C)ccc1F      > 30 µM
2  Cc1c(C(=O)Nc2ccc(F)c(F)c2)c2n(c1C(=O)C(=O)NC1(CO)CC1)CCCC2   5 to 30 µM
3  Cc1cc(NC(=O)c2c(C)c(C(=O)C(=O)NC(C)(C)C)n(CCF)c2C)cnc1F      > 30 µM

Memo: Cc1cc(NC(=O)c2c(C)c(C(=O)C(=O)Nc3cccc(B(O)O)c3)n(C)c2C)ccc1F , reported CC50 at 7 days: 5 to 30 µM

Memo: CC[C@@H](CO)NC(=O)C(=O)c1c(C)c(C(=O)Nc2cnc(F)c(C)c2)c(C)n1C , reported CC50 at 7 days: > 30 µM

Memo: CNC(=O)C1(NC(=O)C(=O)c2c(C)c(C(=O)Nc3ccc(F)c(C)c3)c(C)n2C)CC(F)(F)C1 , reported CC50 at 7 days: > 30 µM

Memo: Cc1cc(Cl)cc(NC(=O)c2c(C)c(C(=O)C(=O)N[C@H]3CC[C@@H](O)CC3)n(C)c2C)c1 , reported CC50 at 7 days: > 30 µM

* * *

Recorded measurements of CC50 at 7 days, one per entry
assay: In vitro cytotoxicity assay (MTT cell viability) in HepG2 cells; assay type: cell-based, human; conditions: human

Observe how each entry below is paired with its result.
> print(dat)
                                 smiles.str  measurement
1  CC(C)(CO)NC(=O)C(=O)c1c(Cl)c(C(=O)Nc2ccc(F)c(F)c2)c2n1CCCC2   5 to 30 µM
2  Cc1cc(NC(=O)c2c(C)c(C(=O)C(=O)N[C@H]3CC[C@](C)(O)CC3)n3c2CCCC3)ccc1F      > 30 µM
3  O=C(NC1(CO)CC(F)(F)C1)C(=O)c1c(Cl)c(C(=O)Nc2ccc(F)c(Cl)c2)c2n1CCC2   5 to 30 µM
4  Cc1cc(NC(=O)c2c(C)c(C(=O)C(=O)NC3CCN(c4ccncc4)CC3)n(C)c2C)ccc1F      > 30 µM
5  Cc1noc([C@H](C)NC(=O)C(=O)c2c(Cl)c(C(=O)Nc3cnc(F)c(C)c3)c3n2CCCC3)n1      > 30 µM

Memo: Cc1cc(NC(=O)c2c(C)c(C(=O)C(=O)N[C@@H]3CCC[C@@H]3O)n(C)c2C)ccc1F , reported CC50 at 7 days: > 30 µM

Memo: COCC(C)(C)NC(=O)C(=O)c1c(C)c(C(=O)Nc2ccc(F)c(C)c2)c(C)n1C , reported CC50 at 7 days: > 30 µM

* * *

Test: In vitro cytotoxicity assay (MTT cell viability) in HepG2 cells
Assay type: cell-based, human
Conditions: human
Description: To evaluate antiviral selectivity, the cytotoxic activity of each compound was determined using a standard cell viability assay performed on the parental HepG2 cell line. Cell viability was determined by measuring the conversion of 3-(4,5-dimethylthiazol-2-yl)-2,5-diphenyltetrazolium bromide (MTT) to the insoluble formazan salt crystal that occurs in live cells. […] All absorbance values were converted to a percentage of the signal obtained from the vehicle treated controls. […]
experimental.endpoint: CC50 at 7 days

Observe how each entry below is paired with its result.
> print(dat)
                                   compound  measurement
1  Cc1cc(NC(=O)c2c(C)c(C(=O)C(=O)NC(C)(C)c3nc(CN(C)C)no3)n3c2CCCC3)ccc1F      > 30 µM
2  Cn1cc(C(=O)Nc2ccc(F)c(Cl)c2)cc1C(=O)C(=O)NOC(C)(C)C      > 30 µM
3  Cc1c(C(=O)NC2CCC(F)(F)C2)c2n(c1C(=O)C(=O)NC1(CO)CCC1)CCCC2 (centres unmarked)      > 30 µM
4  Cc1c(C(=O)Nc2cccc(C(F)F)c2)c(C)n(C)c1C(=O)C(=O)N[C@]1(C)C[C@@H](O)C1      > 30 µM
5  Cc1cc(NC(=O)c2c(C)c(C(=O)C(=O)NC3CCN(c4ncccn4)CC3)n(C)c2C)ccc1F   5 to 30 µM

Memo: CCn1c(C)c(C(=O)Nc2ccc(F)c(C)c2)c(C)c1C(=O)C(=O)NC(C)(C)C , reported CC50 at 7 days: > 30 µM

Memo: Cc1cc(NC(=O)c2c(C)c(C(=O)C(=O)N[C@@H]3CCN(S(C)(=O)=O)C3)n(C)c2C)ccc1F , reported CC50 at 7 days: 5 to 30 µM

Memo: Cc1cc(NC(=O)c2c(C)c(C(=O)C(=O)NC3(CO)CCC3)n3c2CCCC3)ccc1F , reported CC50 at 7 days: 5 to 30 µM
